- target.under.test: T1, SARS-CoV-2 RBD-mFc (SARS-CoV-2, UniProt P0DTC2 319-541)
- T1 construct: range 319-541
- assay.name: Octet QKe BLI, 1:1 global fit
quantity.kind: koff (s⁻¹)
Your answer should be a plain number; it is taken to be in s⁻¹.

Prompt: Need koff of SA4079 (antibody, V domains shown) VH: QMQLVESGGGVVQPGGSLRLSCAASGFTFDDHTMHWVRQAPGKGLEWVSLISWDGGSTYYADSVKGRFTISRDNSKNSLYLQMNSLRAEDTAVYYCTRDASRRPGDGGYDFDVWGQGTQVTVSS VL: QAVVTQEPSLTVSPGGTATLTCGSSTGTVTRGHWPYWFQQKPGQAPRTLIYDTDTKHSWTPARFSGSLLGGKAALTLSGAQPEDEADYYCLLSYSDSRVFGTGTKVTVL , thanks.
Response: 5.73e-05
